Let's look at some compounds and their measured IC50.
# Subject Of Test: Recombinant Cat D (Homo sapiens (Human))
# Sequence (P07339 65-412): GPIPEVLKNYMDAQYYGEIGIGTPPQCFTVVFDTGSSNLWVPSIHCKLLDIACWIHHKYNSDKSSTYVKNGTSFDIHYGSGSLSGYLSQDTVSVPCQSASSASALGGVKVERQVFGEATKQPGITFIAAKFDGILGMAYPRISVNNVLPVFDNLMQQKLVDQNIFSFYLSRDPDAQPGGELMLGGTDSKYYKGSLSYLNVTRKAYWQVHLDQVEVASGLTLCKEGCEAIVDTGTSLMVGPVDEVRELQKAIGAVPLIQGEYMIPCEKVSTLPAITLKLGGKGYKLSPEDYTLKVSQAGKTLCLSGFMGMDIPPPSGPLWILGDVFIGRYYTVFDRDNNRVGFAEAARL
# Assay Protocol: In vitro enzymatic Cathepsin D (Cat D) FRET assay
# Type: biochemical
# Study Conditions: read-out: IC50 IP (μM) CatD

Compound	IC50
COC[C@]12C[C@H]1[C@@](C)(c1cc(NC(=O)c3ncc(OCc4ncco4)cc3C)ccc1F)N=C(N)S2 [Example 644]	> 400 µM

The compound CC#CCCOc1cnc(C(=O)Nc2ccc(F)c([C@@]3(C)N=C(N)S[C@@]4(COC)C[C@H]43)c2)cn1 [Example 1047] showed IC50 equal to > 400 µM
